Provenance of the data: patent US20250353820A1

TARGET_SYSTEM: human HSV DNA polymerase UL30 (Human herpesvirus 1 (strain 17) (HHV-1) (Human herpes simplex virus 1))
PROTOCOL_TEXT: biochemical
APPLIED_CONDITIONS: 625 pM HSV polymerase, 20 minutes at room temperature; read-out: HSV-polymerase Biochemical IC50
Below: a set of entries, each annotated with reported IC50.
Quick reminder: number only, in nM, skip the unit.

Cn1nc(C(=O)NCc2ccc(C#N)cn2)c2c1C(=O)N(CC1(S(=O)(=O)C3CC3)CC1)CC2 : 1610

Which IC50 is reported for this molecule? `CCS(=O)(=O)C1(CN2CCc3c(C(=O)NCc4ccc(C#N)cc4)nn(CC(C)(C)O)c3C2=O)CC1`
150

Which IC50 is reported for this molecule? `Cn1nc(C(=O)NCc2ccc(C#N)cc2)c2c1C(=O)N(CC1(S(=O)(=O)C(C)(C)CN3CC(F)C3)CC1)CC2`
45

Which IC50 is reported for this molecule? CN(C)CC(O)C(C)(C)S(=O)(=O)C1(CN2CCc3c(C(=O)NCc4ccc(Cl)cc4)nn(C)c3C2=O)CC1 (single isomer, unassigned) [Example 207]
88

----------
Below: a set of entries, each annotated with reported pIC50.
TARGET_SYSTEM: human HSV DNA polymerase UL30 (Human herpesvirus 1 (strain 17) (HHV-1) (Human herpes simplex virus 1), UniProt P04293)
PROTOCOL_TEXT: biochemical
APPLIED_CONDITIONS: 625 pM HSV polymerase, 20 minutes at room temperature; read-out: HSV-polymerase Biochemical IC50
// scale note: pIC50 = -log10(conc_M); give the bare number

Cn1nc(C(=O)NCc2ccc(Cl)cc2)c2c1C(=O)N(CC1(S(N)(=O)=O)CC1)CC2 [Example 121] : 6.17
CC(C)(O)Cn1nc(C(=O)NCc2ccc(C#N)cc2)c2c1C(=O)N(CC1(S(=O)(=O)C3(CO)CC3)CC1)CC2 [Example 234] : 7.72
N#Cc1ccc(CNC(=O)c2nn(CC3(O)CC3)c3c2CCN(CC2(S(=O)(=O)C4CC4)CC2)C3=O)cc1 [Example 228] : 7.25
CNCC(O)C(C)(C)S(=O)(=O)C1(CN2CCc3c(C(=O)NCc4ccc(C#N)cc4)nn(C)c3C2=O)CC1 (single isomer, unassigned) [Example 202] : 7.52
Cn1nc(C(=O)OCc2ccc(C#N)cc2)c2c1C(=O)N(CC1(S(=O)(=O)C3CC3)CC1)CC2 [Example 24] : 6.33
Cn1nc(C(=O)NCc2ccc(Cl)cc2)c2c1C(=O)N(CC1(S(=O)(=O)Nc3ccccn3)CC1)CC2 [Example 158] : 7.24

Which pIC50 is reported for this compound? Cn1nc(C(=O)NCc2ccc(C#N)cc2)c2c1C(=O)N(CC1(S(=O)(=O)N3CCC(C)(O)C3)CC1)CC2 (single isomer, unassigned) [Example 131]
6.79

Which pIC50 is reported for this compound? Cn1nc(C(=O)NCc2ccc(C#N)cc2)c2c1C(=O)N(CC1(S(=O)(=O)C(C)(CN)CO)CC1)CC2 (stereo not drawn) [Example 183]
7.19

Which pIC50 is reported for this compound? Cn1nc(C(=O)NCc2ccc(C#N)cc2)c2c1C(=O)N(CC1(S(=O)(=O)C3(C(O)CN)CC3)CC1)CC2 (stereo not drawn) [Example 208]
7.66

Which pIC50 is reported for this compound? Cn1nc(C(=O)NCc2ccc(C#N)cc2)c2c1C(=O)N(CC1(S(=O)(=O)C3(CO)COC3)CC1)CC2 [Example 173]
7.21

Which pIC50 is reported for this compound? CC(C)(CO)S(=O)(=O)C1(CN2CCc3c(C(=O)NCc4ccc(C#N)cc4)nn(CCO)c3C2=O)CC1 [Example 220]
7.64

Which pIC50 is reported for this compound? Cn1nc(C(=O)NCc2ccc(C#N)cc2)c2c1C(=O)N(CC1(S(=O)(=O)C(C)(C)CNC(=O)C(C)(C)N)CC1)CC2 [Example 77]
6.85

Which pIC50 is reported for this compound? Cn1nc(C(=O)NCc2ccc(C#N)cc2F)c2c1C(=O)N(CC1(S(=O)(=O)C3CC3)CC1)CC2 [Example 13]
6.51

Which pIC50 is reported for this compound? Cn1nc(C(=O)NCc2ccc(C#N)cc2)c2c1C(=O)N(CC1(S(=O)(=O)C(C)(C)CN3CC(O)C3)CC1)CC2 [Example 65]
7.28

Which pIC50 is reported for this compound? Cn1nc(C(=O)NCc2ccc(C#N)cc2)c2c1C(=O)N(CC1(S(=O)(=O)C(C)(CN)CO)CC1)CC2 (single isomer, unassigned) [Example 184]
7.28

----------
Below: a set of entries, each annotated with reported IC50.
TARGET_SYSTEM: human CMV DNA polymerase UL54 (Human cytomegalovirus (strain AD169) (HHV-5) (Human herpesvirus 5), UniProt P08546)
PROTOCOL_TEXT: biochemical
APPLIED_CONDITIONS: 100 pM CMV polymerase, 60 minutes at room temperature; read-out: CMV-polymerase Biochemical IC50
Quick reminder: number only, in nM, skip the unit.

Observe how each entry below is paired with its result.
Cn1nc(C(=O)NCc2ccc(C#N)cc2)c2c1C(=O)N(CC1(S(=O)(=O)C3CCOC3)CC1)CC2 (single isomer, unassigned) [Example 170] : 4
CNCC(O)C(C)(C)S(=O)(=O)C1(CN2CCc3c(C(=O)NCc4ccc(C#N)cc4)nn(C)c3C2=O)CC1 (single isomer, unassigned) [Example 203] : 2

Which IC50 is reported for this molecule? CN(C)CC(O)C(C)(C)S(=O)(=O)C1(CN2CCc3c(C(=O)NCc4ccc(Cl)cc4)nn(C)c3C2=O)CC1 (single isomer, unassigned) [Example 207]
23

Which IC50 is reported for this molecule? Cn1nc(C(=O)NCc2ccc(Cl)cc2)c2c1C(=O)N(CC1(S(=O)(=O)C(C)(C)C(O)CN)CC1)CC2 (single isomer, unassigned) [Example 201]
1

Which IC50 is reported for this molecule? CNCC(O)C(C)(C)S(=O)(=O)C1(CN2CCc3c(C(=O)NCc4ccc(Cl)cc4)nn(C)c3C2=O)CC1 (single isomer, unassigned) [Example 205]
2

Which IC50 is reported for this molecule? Cn1nc(C(=O)NCc2ccc(Cl)cc2)c2c1C(=O)N(CC1(S(=O)(=O)C3(C(O)CO)CC3)CC1)CC2 (single isomer, unassigned) [Example 197]
1

Which IC50 is reported for this molecule? Cn1nc(C(=O)NCc2ccc(C#N)cc2)c2c1C(=O)N(CC1(S(=O)(=O)C3CCOC3)CC1)CC2 (single isomer, unassigned) [Example 171]
3

Which IC50 is reported for this molecule? CNCC(O)C(C)(C)S(=O)(=O)C1(CN2CCc3c(C(=O)NCc4ccc(Cl)cc4)nn(C)c3C2=O)CC1 (single isomer, unassigned) [Example 204]
3

Which IC50 is reported for this molecule? Cn1nc(C(=O)NCc2ccc(C#N)cc2)c2c1C(=O)N(CC1(S(=O)(=O)C(C)(C)C(O)CN)CC1)CC2 (single isomer, unassigned) [Example 199]
1

Which IC50 is reported for this molecule? Cn1nc(C(=O)NCc2ccc(C#N)cc2)c2c1C(=O)N(CC1(S(=O)(=O)C3(C(O)CO)CC3)CC1)CC2 (single isomer, unassigned) [Example 195]
1

Which IC50 is reported for this molecule? N#Cc1ccc(CNC(=O)c2n[nH]c3c2CCN(CC2(S(=O)(=O)C4CC4)CC2)C3=O)cc1 [Example 45]
6

Which IC50 is reported for this molecule? Cn1nc(C(=O)NCc2ccc(C#N)cc2)c2c1C(=O)N(CC1(S(=O)(=O)C(C)(CN)CO)CC1)CC2 (single isomer, unassigned) [Example 185]
4

Which IC50 is reported for this molecule? Cn1nc(C(=O)NCc2ccc(C#N)cc2)c2c1C(=O)N(CC1(S(=O)(=O)C(C)(CN)CO)CC1)CC2 (single isomer, unassigned) [Example 184]
4

Which IC50 is reported for this molecule? Cn1nc(C(=O)NCc2ccc(C#N)cc2)c2c1C(=O)N(CC1(S(=O)(=O)C(C)(C)COCCO)CC1)CC2 [Example 87]
1

Which IC50 is reported for this molecule? CC(N)COCC(C)(C)S(=O)(=O)C1(CN2CCc3c(C(=O)NCc4ccc(C#N)cc4)nn(C)c3C2=O)CC1 (single isomer, unassigned) [Example 100]
4

Which IC50 is reported for this molecule? CN(C)CC(O)C(C)(C)S(=O)(=O)C1(CN2CCc3c(C(=O)NCc4ccc(Cl)cc4)nn(C)c3C2=O)CC1 (single isomer, unassigned) [Example 206]
21

Which IC50 is reported for this molecule? CC(C)[C@@H](NS(=O)(=O)C1(CN2CCc3c(C(=O)NCc4ccc(Cl)cc4)nn(C)c3C2=O)CC1)C(=O)O [Example 215]
1

Which IC50 is reported for this molecule? Cn1nc(C(=O)NCc2ccc(Cl)cc2)c2c1C(=O)N(CC1(S(=O)(=O)C(C)(C)C(O)CN)CC1)CC2 (single isomer, unassigned) [Example 200]
1

Which IC50 is reported for this molecule? Cn1nc(C(=O)NCc2ccc(Cl)cc2)c2c1C(=O)N(CC1(S(=O)(=O)C3(C(O)CO)CC3)CC1)CC2 (single isomer, unassigned) [Example 196]
1

Which IC50 is reported for this molecule? CNCC(O)C(C)(C)S(=O)(=O)C1(CN2CCc3c(C(=O)NCc4ccc(C#N)cc4)nn(C)c3C2=O)CC1 (single isomer, unassigned) [Example 202]
2
